Origin of the recorded values: patent US11584725B2

Exercise: for every item that follows, state its recorded MIC.
Tested on: Mycobacterium fortuitum
Assay: Anti-mycobacterial MIC
Format: cell-based
Conditions: Mycolicibacterium fortuitum, read-out: Minimum inhibitory concentration (MIC), observed
The reply should contain only the number, in mM.

stdin: Field request: MIC | item: O=C(NNC(=O)c1cnccn1)c1ccncc1 [PZA-INH]
stdout: 41.1

stdin: Check O=C(NNC(=O)c1ccncc1)c1ccncc1 [Iso-INH] too.
stdout: 82.6

stdin: Check CSCC[C@H](NC(=O)c1cnccn1)C(=O)NNC(=O)c1ccncc1 [PZA-Met-INH] too.
stdout: 53.4

stdin: Check CCC(C)C(NC(=O)c1cnccn1)C(=O)NNC(=O)c1ccncc1 (centres unmarked) [PZA-Ile-INH] too.
stdout: 56.1

stdin: Check NC(=O)c1cnccn1 [PZA, Pyrazinamide, reference compound] too.
stdout: 81.2

====

Tested on: Mycobacterium fortuitum
Test: Anti-mycobacterial MIC
Assay type: cell-based
Conditions: Mycolicibacterium fortuitum, read-out: Minimum inhibitory concentration (MIC), observed
Response field label: string, one of yes (MIC strictly below 60 mM) or no.

stdin: Given `CC(C)C[C@H](NC(=O)c1cnccn1)C(=O)O` , is recorded MIC strictly lower than 60 mM?
stdout: no

stdin: Check `O=C(NNC(=O)[C@H](Cc1c[nH]c2ccccc12)NC(=O)c1cnccn1)c1ccncc1` too.
stdout: yes

stdin: Check `O=C(NNC(=O)[C@H](Cc1ccccc1)NC(=O)c1cnccn1)c1ccncc1` too.
stdout: yes

stdin: Check `CC(C)C[C@H](NC(=O)c1cnccn1)C(=O)NNC(=O)c1ccncc1` too.
stdout: yes
